Recorded Clearances, one value per entry.
# experimentSummary: Pharmacokinetics of JHG components in control rats after intragastric administration of JHGs (plasma, Orbitrap Fusion MS)
# Format: in vivo, Sprague Dawley (SD) rats
# settings: JHGs high dose 22.81 g/kg/d

- compound: "COc1cc(O)c2c(c1)oc(=O)c1c3cc(O)c(O)cc3oc21"
  unitOfMeasure: "L/h/kg"
  Clearances: 0.006
- compound: "COc1ccc(C(C)=O)c(O)c1"
  unitOfMeasure: "L/h/kg"
  Clearances: 141.44
- compound: "CC1CCC2N(C1)CC1C3CC4C(CC(O)C5CC(O)CCC54C)C3CCC1C2(C)O (stereo not drawn)"
  unitOfMeasure: "L/h/kg"
  Clearances: 5.32
- compound: "O=c1cc(-c2ccc(O)cc2)oc2cc(OC3OC(CO)C(O)C(O)C3O)cc(O)c12 (stereo not drawn) [Apigenin-7-glucoside]"
  unitOfMeasure: "L/h/kg"
  Clearances: 0.44
- compound: "CC1CCC2N(C1)CC1C3CC4C(CC(=O)C5CC(O)CCC54C)C3CCC1C2(C)O (stereo not drawn)"
  unitOfMeasure: "L/h/kg"
  Clearances: 6.72
- compound: "COc1ccc(-c2cc(=O)c3c(OC)c(OC)c(OC)c(OC)c3o2)cc1OC"
  unitOfMeasure: "L/h/kg"
  Clearances: 48.34

====

# maps each entry to its AUC(0-inf)
# experimentSummary: Pharmacokinetics of JHG components in pulmonary fibrosis (PF) model rats after intragastric administration of JHGs (plasma, Orbitrap Fusion MS)
# Format: in vivo, Sprague Dawley (SD) rats
# settings: male, Sprague-Dawley, rat, plasma, po, 5.7 g/kg/day; PF model rats, JHGs low dose 5.70 g/kg/d
measuredParameter: AUC(0-inf) (ng·h/mL)

- molecule: "COc1ccc(C(C)=O)c(O)c1 [Paeonol]"
  unitOfMeasure: "ng·h/mL"
  measured: 41.8
- molecule: "COc1ccc(-c2cc(=O)c3c(OC)c(OC)c(OC)c(OC)c3o2)cc1OC [Nobiletin]"
  unitOfMeasure: "ng·h/mL"
  measured: 33.4
- molecule: "CC1=C2CC3C(CC(=O)C4CC(O)CCC43C)C2CCC12OC1CC(C)CNC1C2C (stereo not drawn) [Peimisine]"
  unitOfMeasure: "ng·h/mL"
  measured: 14.6

====

# experimentSummary: Pharmacokinetics of JHG components in pulmonary fibrosis (PF) model rats after intragastric administration of JHGs (plasma, Orbitrap Fusion MS)
# Format: in vivo, Sprague Dawley (SD) rats
# settings: male, Sprague Dawley, rat, plasma, po, 11.41 g/kg/day; PF model rats, JHGs medium dose 11.41 g/kg/d
Listed compounds paired with reported half-life
measuredParameter: half-life (h)

- compound: "COc1ccc(-c2cc(=O)c3c(OC)c(OC)c(OC)c(OC)c3o2)cc1OC [Nobiletin]"
  measured: 31.5
- compound: "COc1ccc(C(C)=O)c(O)c1 [Paeonol]"
  measured: 19.2
- compound: "CC1=C2CC3C(CC(=O)C4CC(O)CCC43C)C2CCC12OC1CC(C)CNC1C2C (stereo not drawn) [Peimisine]"
  measured: 8.25

====

# experimentSummary: Pharmacokinetics of JHG components in control rats after intragastric administration of JHGs (plasma, Orbitrap Fusion MS)
# Type: in vivo, Sprague Dawley (SD) rats
# settings: male, Sprague Dawley, rat, plasma, po, 5.7 g/kg/day, intragastric JHGs, low dose 5.70 g/kg/d, n=6 (1st of 3 stacked values)

- molecule: "COc1ccc(-c2cc(=O)c3c(OC)c(OC)c(OC)c(OC)c3o2)cc1OC [Nobiletin]"
  Cmax / ng/mL: 2.51
- molecule: "C[C@@H]1O[C@@H](O[C@@H]2[C@@H](O)[C@H](OCCc3ccc(O)c(O)c3)O[C@H](COC(=O)/C=C/c3ccc(O)c(O)c3)[C@H]2O)[C@H](O)[C@H](O)[C@H]1O [Isoacteoside]"
  Cmax / ng/mL: 5.67
- molecule: "CC1=C2CC3C(CC(=O)C4CC(O)CCC43C)C2CCC12OC1CC(C)CNC1C2C (centres unmarked) [Peimisine]"
  Cmax / ng/mL: 1.49
- molecule: "COc1ccc(C(C)=O)c(O)c1 [Paeonol]"
  Cmax / ng/mL: 6.6
- molecule: "COc1cc(O)c2c(c1)oc(=O)c1c3cc(O)c(O)cc3oc21 [Wedelolactone]"
  Cmax / ng/mL: 18.6
